System: LNCaP
experimental-protocol: MTT cytotoxicity assay, LNCaP prostate cancer cells
Assay type: cell-based, human
condition-context: Homo sapiens, 48 hours, 2.5 × 10^−6 M, read-out: Growth Inhibition %
Listing of entries alongside the reported inhibition at 2.5 µM.
measure-name: inhibition at 2.5 µM (%)

compound="C=C(C)[C@@H]1CC[C@]2(COC(C)=O)CC[C@]3(C)[C@H](CC[C@@H]4[C@@]5(C)CC[C@H](OC(C)=O)C(C)(C)[C@@H]5CC[C@]43C)[C@@H]12 [Compound 6, Betulin Diacetate]" readout_number=46.7
compound="C=C(C)C1CCC2(CO)CC[C@]3(C)[C@H](CC[C@@H]4[C@@]5(C)CCC(O)C(C)(C)[C@@H]5CC[C@]43C)C12 (some centres unmarked)" readout_number=13.8
compound="C=C(C)C1CCC2(C(=O)O)CC[C@]3(C)[C@H](CC[C@@H]4[C@@]5(C)CCC(=O)C(C)(C)[C@@H]5CC[C@]43C)C12 (some centres unmarked)" readout_number=43
compound="C=C(C)C1CCC2(COC)CCC3(C)C(CCC4C5(C)CCC(OC)C(C)(C)C5CCC43C)C12 (centres unmarked)" readout_number=44
compound="C=C(C)C1CCC2(C=O)CCC3(C)C(CCC4C5(C)CCC(=O)C(C)(C)C5CCC43C)C12 (centres unmarked)" readout_number=47.4

----------
Listing of entries alongside the reported inhibition at 2.5 µM.
System: LNCaP
experimental-protocol: MTT cytotoxicity assay, LNCaP prostate cancer cells
Assay type: cell-based, human
condition-context: Homo sapiens, 24 hours, 2.5 × 10^−6 M, read-out: Growth Inhibition %
measure-name: inhibition at 2.5 µM (%)

molecule="C=C(C)[C@@H]1CC[C@]2(COC(C)=O)CC[C@]3(C)[C@H](CC[C@@H]4[C@@]5(C)CC[C@H](OC(C)=O)C(C)(C)[C@@H]5CC[C@]43C)[C@@H]12 [Compound 6, Betulin Diacetate]" system=LNCaP readout_number=18.7
molecule="C=C(C)C1CCC2(C(=O)O)CC[C@]3(C)[C@H](CC[C@@H]4[C@@]5(C)CCC(=O)C(C)(C)[C@@H]5CC[C@]43C)C12 (some centres unmarked) [Compound 4, Betulonic Acid]" system=LNCaP readout_number=14.7
molecule="C=C(C)C1CCC2(CO)CC[C@]3(C)[C@H](CC[C@@H]4[C@@]5(C)CCC(O)C(C)(C)[C@@H]5CC[C@]43C)C12 (some centres unmarked) [Compound 1, Betulinol]" system=LNCaP readout_number=11.9
molecule="C=C(C)C1CCC2(COC)CCC3(C)C(CCC4C5(C)CCC(OC)C(C)(C)C5CCC43C)C12 (centres unmarked) [Compound 7, Betulin Dimethyl ether (Cornelon)]" system=LNCaP readout_number=18.1
molecule="C=C(C)C1CCC2(C=O)CCC3(C)C(CCC4C5(C)CCC(=O)C(C)(C)C5CCC43C)C12 (centres unmarked) [Compound 5, Betulon Aldehyde]" system=LNCaP readout_number=21.9

----------
System: LNCaP
experimental-protocol: MTT cytotoxicity assay, LNCaP prostate cancer cells
Format: cell-based, human
condition-context: Homo sapiens, 24 hours, 2.5 × 10^−7 M, read-out: Growth Inhibition %
Lab note: compare inhibition at 0.25 µM against 6%. Equal or greater, write True. Smaller, write False.

compound="C=C(C)[C@@H]1CC[C@]2(COC(C)=O)CC[C@]3(C)[C@H](CC[C@@H]4[C@@]5(C)CC[C@H](OC(C)=O)C(C)(C)[C@@H]5CC[C@]43C)[C@@H]12 [Compound 6, Betulin Diacetate]" system=LNCaP class=False
compound="C=C(C)C1CCC2(CO)CC[C@]3(C)[C@H](CC[C@@H]4[C@@]5(C)CCC(O)C(C)(C)[C@@H]5CC[C@]43C)C12 (some centres unmarked)" system=LNCaP class=True
compound="C=C(C)C1CCC2(C=O)CCC3(C)C(CCC4C5(C)CCC(=O)C(C)(C)C5CCC43C)C12 (centres unmarked)" system=LNCaP class=True
compound="C=C(C)C1CCC2(COC)CCC3(C)C(CCC4C5(C)CCC(OC)C(C)(C)C5CCC43C)C12 (centres unmarked)" system=LNCaP class=True
compound="C=C(C)C1CCC2(C(=O)O)CC[C@]3(C)[C@H](CC[C@@H]4[C@@]5(C)CCC(=O)C(C)(C)[C@@H]5CC[C@]43C)C12 (some centres unmarked)" system=LNCaP class=False

----------
Test system: LNCaP
experimental-protocol: MTT cytotoxicity assay, LNCaP prostate cancer cells
Type: cell-based, human
condition-context: Homo sapiens, 48 hours, 2.5 × 10^−5 M, read-out: Growth Inhibition %
measure-name: inhibition at 25 µM (%)

compound="C=C(C)C1CCC2(C(=O)O)CC[C@]3(C)[C@H](CC[C@@H]4[C@@]5(C)CCC(=O)C(C)(C)[C@@H]5CC[C@]43C)C12 (some centres unmarked)" measure_name="inhibition at 25 µM" readout_number=32.6
compound="C=C(C)C1CCC2(COC)CCC3(C)C(CCC4C5(C)CCC(OC)C(C)(C)C5CCC43C)C12 (centres unmarked)" measure_name="inhibition at 25 µM" readout_number=50.9
compound="C=C(C)C1CCC2(CO)CC[C@]3(C)[C@H](CC[C@@H]4[C@@]5(C)CCC(O)C(C)(C)[C@@H]5CC[C@]43C)C12 (some centres unmarked)" measure_name="inhibition at 25 µM" readout_number=31
compound="C=C(C)C1CCC2(C=O)CCC3(C)C(CCC4C5(C)CCC(=O)C(C)(C)C5CCC43C)C12 (centres unmarked)" measure_name="inhibition at 25 µM" readout_number=40.2
compound="C=C(C)[C@@H]1CC[C@]2(COC(C)=O)CC[C@]3(C)[C@H](CC[C@@H]4[C@@]5(C)CC[C@H](OC(C)=O)C(C)(C)[C@@H]5CC[C@]43C)[C@@H]12 [Compound 6, Betulin Diacetate]" measure_name="inhibition at 25 µM" readout_number=56.6
